system: ACHN renal; assay: NCI tumour cell line growth inhibition, 48 h; in the data active means GI50 below about 0.43 µM; inactive means the rest
Permitted responses: true (active), false (inactive)

INSERT INTO results (molecule, assayed_target, label_value) VALUES
  ('CC(=O)[CH-]C(C)=O.CC(=O)[CH-]C(C)=O.[CH2-]CCCCCCC.[CH2-]CCCCCCC.[Sn+4]', 'ACHN renal', 'false');

Now take the following molecule into account.
Name the outcome recorded for Cc1nc2cc(-n3c(-c4ccc(F)cc4)nc4ccccc4c3=O)ccc2n1Cc1ccccc1 in the assay.
false

###

test system: IGROV1 ovarian; test: NCI tumour cell line growth inhibition, 48 h; in the data active = GI50 below about 0.43 µM; inactive = the rest
Permitted responses: active, inactive

Worked set:
INSERT INTO results (compound, assayed_target, label_value) VALUES
  ('Cc1nc2cc(-n3c(-c4ccc(F)cc4)nc4ccccc4c3=O)ccc2n1Cc1ccccc1', 'IGROV1 ovarian', 'inactive'),
  ('COc1ccc(/C=C/C(=O)c2cccc(B(O)O)c2)cc1O', 'IGROV1 ovarian', 'inactive'),
  ('O=C1c2ccccc2C(=O)c2c(N=Nc3[nH]c(=S)[nH]c3O)cccc21', 'IGROV1 ovarian', 'inactive'),
  ('C1CN1c1nc(N2CC2)nc(N2CC2)n1', 'IGROV1 ovarian', 'inactive'),
  ('COc1ccc(/C=N/C2=C(C#N)C(c3ccccc3)c3c(ccc4ccccc34)O2)cc1 (centres undefined)', 'IGROV1 ovarian', 'inactive');

Name the outcome recorded for CCN(CC)c1ccc(/C=C2\SC(=O)C(Nc3nnc(-c4cccnc4SCc4ccccc4)o3)C2=O)cc1 (centres undefined) in the assay.
inactive

Name the outcome recorded for COc1ccc(S(=O)(=O)Nc2cc(/C=C\c3cc(OC)c(OC)c(OC)c3)cc(OC)c2OC)cc1 in the assay.
active

###

# TGI per record follows
test system: HCT-15 colon; experiment: NCI tumour cell line growth inhibition, 48 h

// below: answered compounds
INSERT INTO results (compound, measurement) VALUES
  ('CC(C)NCC(O)c1cc(OCc2ccccc2)c(OCc2ccccc2)cc1NC(=O)CCC(=O)O (stereo not drawn)', '12.4 µM'),
  ('O=C(N=C1N(c2ccccc2)C(=O)C(=O)N1c1ccccc1)c1ccccc1', '22.4 µM');

TGI for CN1CCN(CC(=O)Nc2cccc3ccccc23)CC1 is > 100 µM

TGI for O=C(O)c1ccccc1CC1Cc2ccccc2C1 is > 100 µM

TGI for COc1ccc(C2C=C(c3ccccc3)Nc3nnnn32)cc1 (stereo not drawn) is > 100 µM

TGI for COc1c2c(cc3nc4ccccc4nc13)CC[C@H](NC(C)=O)c1cc(=O)c(SC)ccc1-2 is 19 µM

TGI for COc1cccc(C2C(C(=O)O)=C(CO)Oc3cc4c(cc32)OCO4)c1OC (stereo not drawn) is > 100 µM

TGI for O=C(O)c1cc(-c2ccc3c(O)ccc(O)c3c2)ccc1O is 34.4 µM

TGI for COC(=O)[C@@H](Cc1ccccc1)NNC(=O)OC(C)(C)C is > 100 µM

TGI for C[C@@H](O)[C@H]1C(=O)N2C(C(=O)O)=C(SCCN=CN)C[C@H]12 is 11.1 µM

TGI for CNC(=O)C(C)C1C(=O)/C(=C(O)/C=C\C(C)=C\C(C)C2OC3(C)OC(C=CC34CO4)C2C)C(=O)N1C1CCC(O)C(C)O1 (stereo not drawn) is > 100 µM

TGI for CC1(CO)OC(n2cnc3cncnc32)CC1O (stereo not drawn) is > 100 µM

TGI for O=c1c2cccnc2[nH]c2ccc3[nH]ncc3c12 is > 10 µM

TGI for O=C1c2ccccc2CCC1C(O)(C(F)(F)F)C(F)(F)F (stereo not drawn) is > 100 µM

TGI for CCCCNc1nc(N)nc(Nc2ccc(Br)cc2)c1N=O is > 100 µM

TGI for C[N+](C)=C/C=C(\Cl)c1ccc2ccccc2c1 is 11.2 µM
